Listing: Maximum-tolerated concentration (MTC) of selected compounds
Test system: zebrafish embryos and larvae
Settings: exposure for 24 hours beginning at 2–4 cell stage; highest concentration with no phenotypic abnormalities; followed to 9 dpf

The following compounds have reported results that may help.
> print(dat)
                                   compound  obs.value
1  C[S+](C)[O-] [Dimethyl sulfoxide (DMSO), Dimethyl sulfoxide]      >2.5%
2        CC1(C)OCC(CO)O1 (stereo not drawn)      <0.5%

API: the following record is the query input.
Please indicate Maximum-tolerated concentration (MTC) recorded for CC#N
<0.5%
